Catalogue of binders with associated OD450
TARGET_DESC: T1, SARS-CoV-2 spike glycoprotein S1+S2 extracellular domain (SARS-CoV-2, reference sequence, UniProt P0DTC2)
T1 construct: also called full-length spike glycoprotein ectodomain
TEST_DETAILS: ELISA
Numeric only. Scale: OD450

Example results:
FJ 10B (antibody, V domains shown, source: HEK293T, transfected; culture supernatant or purified) VH: QVQLVQSGAEVKKPGESLRISCKGSGYSFTSYWISWVRQMPGKGLEWMGRIDPSDSYTNYSPSFQGHVTISADKSISTAYLQWSSLKASDTAMYYCARLDPRYGPDYYGMDVWGQGTTVTVSS VL: AIRMTQSPSSLSASVGDRVTITCRASQSISSYLNWYQQKPGKAPKLLIHAASSLQSGVPSRFSGSGSGTDFTLTMSSLQPEDFATYYCQQSYSTPLTFGGGTKVEIR | 1.48
FG 12C (antibody, V domains shown, source: HEK293T, transfected; culture supernatant or purified) VH: EVQLVESGGGLVQPGRSLRLSCAASGFTFDDYAMHWVRQAPGKGLEWVSGISWNSGSIGYADSVKGRFTISRDNAKNSLYLQMNSLRAEDTALYYCAKDMRVHDYGDYYFDYWGQGTLVTVSS VL: SYELTQPPSVSVAPGKTARITCGGNNIGSKSVHWYQQKPGQAPVLVIYYDSDRPSGIPERFSGSNSGNTATLTISRVEAGDEADYYCQVWDSSSDHPVFGGGTKLTVL | 1.74
EZ 7A (antibody, V domains shown, source: HEK293T, transfected; culture supernatant or purified) VH: EVQLVESGAEVKKPGESLKISCKGSGYSFTSYWIGWVRQMPGKGLEWMGIIYPGDSDTRYSPSFQGQVTISADKSISTAYLQWSSLKASDTAMYYCARGWVYRGFPYYGMDVWGQGTMVTVSS VL: QSALTQPRSVSGSPGQSVTISCTGTSSDVGGYNYVSWYQQHPGKAPKLMIYDVSKRPSGVPDRFSGSKSGNTASLTISGLQAEDEADYYCCSYAGSYTLVFGGGTKLTVL | 1.66
FD 11A (antibody, V domains shown, source: HEK293T, transfected; culture supernatant or purified) VH: EVQLVESGGGVVQPGRSLRLSCAASGFTFSSYGMHWVRQAPGKGLEWVAVIWYDGSNKYYADSVKGRFTISRDNSKNTLYLQMNSLRAEDTAVYYCAKGPDILTGYYNYYYYGMDVWGQGTMVTVSS VL: QSVLTQPPSVSGAPGQRVTISCTGSSSNIGAGYDVHWYQQLPGTAPKLLIYGNSNRPSGVPDRFSGSKSGTSASLAITGLQAEDEADYYCQSYDSSLSGFYVVFGGGTKLTVL | 1.64

Below: the item to evaluate.
Look up OD450 for this binder: FB 1E (antibody, V domains shown, source: HEK293T, transfected; culture supernatant or purified) VH: EVQLVESGAEVKKPGESLKISCQGSGYRFNSYWIAWVRQMPGKGLEWMGSIFPTDSDIRYNPSFQGQVTISADKSISIAYLQWSSLKASDTAIYYCARHWASMVRGVIRASHYYGMDVWGQGTTVTVSS VL: QSVLTQPPSASGSPGQSVTISCSGASSDIGDYNYVSWYQQLPGKAPKLLIYEVTKRPSGVPDRFSGSKSGNTASLTVSGLQADDEADYYCSSYAFGGSDIRVFGGGTKLAVL 1.4

Taken from paper PMC8130932.
